Values from ChEMBL document CHEMBL5321272

Molecular target: Receptor-type tyrosine-protein kinase FLT3 (Homo sapiens, UniProt P36888, ITD)
Assay: Inhibition of FLT3 ITD mutant (unknown origin) by HTRF assay
pIC50: −log10 of the molar value.
parameter: pIC50

Inquiry: # query: pIC50 of entry CC(C)(O)CC(=O)N1CCc2cc(Nc3ncc(C(F)(F)F)c(N[C@H]4CC[C@@H](N)CC4)n3)ccc2C1
Reply text: > 8.00

====

Molecular target: Mitogen-activated protein kinase kinase kinase 7 (Homo sapiens)
Sequence (O43318 whole entry): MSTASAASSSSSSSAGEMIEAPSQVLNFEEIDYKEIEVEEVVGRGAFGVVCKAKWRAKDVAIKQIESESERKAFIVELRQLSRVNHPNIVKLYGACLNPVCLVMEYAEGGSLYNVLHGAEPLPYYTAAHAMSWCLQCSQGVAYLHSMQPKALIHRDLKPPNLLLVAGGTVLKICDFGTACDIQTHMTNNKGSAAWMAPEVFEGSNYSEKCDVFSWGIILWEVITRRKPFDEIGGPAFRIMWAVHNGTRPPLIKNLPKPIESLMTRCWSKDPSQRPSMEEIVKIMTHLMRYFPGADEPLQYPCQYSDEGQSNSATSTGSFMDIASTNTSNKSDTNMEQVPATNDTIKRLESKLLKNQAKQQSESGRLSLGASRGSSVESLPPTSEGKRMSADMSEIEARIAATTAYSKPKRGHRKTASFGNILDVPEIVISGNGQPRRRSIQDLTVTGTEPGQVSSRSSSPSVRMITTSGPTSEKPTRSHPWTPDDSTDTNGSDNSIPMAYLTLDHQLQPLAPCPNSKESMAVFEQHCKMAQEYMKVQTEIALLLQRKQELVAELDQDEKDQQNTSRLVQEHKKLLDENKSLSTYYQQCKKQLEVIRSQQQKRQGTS
Assay: Inhibition of TAK1 (unknown origin) by HTRF assay
parameter: IC50 (nM)
Just the number please, in nM, no unit attached.

Inquiry: Item under review: CC(C)(O)CC(=O)N1CCc2cc(Nc3ncc(C(F)(F)F)c(N[C@H]4CC[C@@H](N)CC4)n3)ccc2C1 . Reported IC50?
Reply text: 64.3

====

Test: Half life in ICR mouse at 10 mg/kg, po
Format: ADME, organism-based
Settings: in vivo
parameter: log10 half-life (log10 of the value in min)
Quick note: numbers are log10 of half-life, with min as the unit.

Worked examples follow.
[
  {
    "molecular string": "CC(C)(O)CC(=O)N1Cc2ccc(Nc3ncc(C(F)(F)F)c(N[C@H]4CC[C@@H](N)CC4)n3)cc2C1",
    "log10 half-life": 1.69
  },
  {
    "molecular string": "CC(C)(O)C(=O)N1CCc2ccc(Nc3ncc(C(F)(F)F)c(N[C@H]4CC[C@@H](N)CC4)n3)cc2C1",
    "log10 half-life": 2.74
  },
  {
    "molecular string": "CC(=O)N1CCc2cc(Nc3ncc(C(F)(F)F)c(N[C@H]4CC[C@@H](N)CC4)n3)ccc2C1",
    "log10 half-life": 1.69
  },
  {
    "molecular string": "N[C@H]1CC[C@@H](Nc2nc(Nc3ccc4c(c3)CCN(C(=O)CO)C4)ncc2C(F)(F)F)CC1",
    "log10 half-life": 2.14
  },
  {
    "molecular string": "CC(C)(O)C(=O)N1Cc2ccc(Nc3ncc(C(F)(F)F)c(N[C@H]4CC[C@@H](N)CC4)n3)cc2C1",
    "log10 half-life": 1.58
  },
  {
    "molecular string": "CC(C)(O)CC(=O)N1CCc2cc(Nc3ncc(C(F)(F)F)c(N[C@H]4CC[C@@H](N)CC4)n3)ccc2C1",
    "log10 half-life": 2.53
  },
  {
    "molecular string": "CC(=O)N1Cc2ccc(Nc3ncc(C(F)(F)F)c(N[C@H]4CC[C@@H](N)CC4)n3)cc2C1",
    "log10 half-life": 1.86
  }
]

Please turn your attention to the following entry.
Inquiry: Which value of log10 half-life has been reported for C[C@@H](O)C(=O)N1CCc2cc(Nc3ncc(C(F)(F)F)c(N[C@H]4CC[C@@H](N)CC4)n3)ccc2C1 in the records?
Reply text: 1.76

====

The reader will find pIC50 measurements below, all made with Mast/stem cell growth factor receptor Kit (Homo sapiens, UniProt P10721).
Sequence (P10721 whole entry): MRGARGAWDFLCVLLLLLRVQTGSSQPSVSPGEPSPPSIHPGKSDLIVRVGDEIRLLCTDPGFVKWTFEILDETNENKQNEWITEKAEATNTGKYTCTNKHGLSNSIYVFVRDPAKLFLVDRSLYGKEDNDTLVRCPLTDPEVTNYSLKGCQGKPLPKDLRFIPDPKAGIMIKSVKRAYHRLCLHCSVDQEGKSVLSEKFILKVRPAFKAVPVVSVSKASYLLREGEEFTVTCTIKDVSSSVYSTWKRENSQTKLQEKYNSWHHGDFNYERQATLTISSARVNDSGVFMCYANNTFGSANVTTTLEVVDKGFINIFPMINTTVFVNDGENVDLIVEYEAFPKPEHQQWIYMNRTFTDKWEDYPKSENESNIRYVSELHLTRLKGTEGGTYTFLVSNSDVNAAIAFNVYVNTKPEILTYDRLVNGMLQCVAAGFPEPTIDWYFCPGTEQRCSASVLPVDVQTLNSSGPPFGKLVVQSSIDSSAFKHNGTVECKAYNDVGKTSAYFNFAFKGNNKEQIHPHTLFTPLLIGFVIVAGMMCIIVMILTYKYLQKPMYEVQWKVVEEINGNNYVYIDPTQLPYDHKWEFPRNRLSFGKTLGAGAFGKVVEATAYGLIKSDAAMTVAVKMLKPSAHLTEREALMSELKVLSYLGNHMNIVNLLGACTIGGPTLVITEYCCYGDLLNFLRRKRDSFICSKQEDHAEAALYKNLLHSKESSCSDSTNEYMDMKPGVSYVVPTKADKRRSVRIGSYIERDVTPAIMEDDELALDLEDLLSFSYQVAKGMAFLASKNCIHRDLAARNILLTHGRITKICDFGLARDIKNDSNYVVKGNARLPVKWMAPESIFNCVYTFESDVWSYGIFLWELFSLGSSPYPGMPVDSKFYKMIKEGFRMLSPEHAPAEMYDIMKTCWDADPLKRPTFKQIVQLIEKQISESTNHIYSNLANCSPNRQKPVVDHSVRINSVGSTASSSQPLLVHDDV
As a rule, pIC50 stands for the negative log10 of the concentration, concentration in M.

// below: answered compounds
[
  {
    "molecular string": "C[C@H](O)C(=O)N1CCc2cc(Nc3ncc(C(F)(F)F)c(N[C@H]4CC[C@@H](N)CC4)n3)ccc2C1",
    "subject of test": "Mast/stem cell growth factor receptor Kit (Homo sapiens, UniProt P10721)",
    "readout value": 6.15
  },
  {
    "molecular string": "CC(C)(O)CC(=O)N1CCc2cc(Nc3ncc(C(F)(F)F)c(N[C@H]4CC[C@@H](N)CC4)n3)ccc2C1",
    "subject of test": "Mast/stem cell growth factor receptor Kit (Homo sapiens, UniProt P10721)",
    "readout value": 5.73
  },
  {
    "molecular string": "C[C@@H](O)C(=O)N1CCc2cc(Nc3ncc(C(F)(F)F)c(N[C@H]4CC[C@@H](N)CC4)n3)ccc2C1",
    "subject of test": "Mast/stem cell growth factor receptor Kit (Homo sapiens, UniProt P10721)",
    "readout value": 5.75
  },
  {
    "molecular string": "CC(=O)N1CCc2ccc(Nc3ncc(C(F)(F)F)c(N[C@H]4CC[C@@H](N)CC4)n3)cc2C1",
    "subject of test": "Mast/stem cell growth factor receptor Kit (Homo sapiens, UniProt P10721)",
    "readout value": 5.34
  },
  {
    "molecular string": "CC(C)(O)C(=O)N1CCc2cc(Nc3ncc(C(F)(F)F)c(N[C@H]4CC[C@@H](N)CC4)n3)ccc2C1",
    "subject of test": "Mast/stem cell growth factor receptor Kit (Homo sapiens, UniProt P10721)",
    "readout value": 6.04
  },
  {
    "molecular string": "CC(=O)N1CCc2cc(Nc3ncc(C(F)(F)F)c(N[C@H]4CC[C@@H](N)CC4)n3)ccc21",
    "subject of test": "Mast/stem cell growth factor receptor Kit (Homo sapiens, UniProt P10721)",
    "readout value": 5.32
  }
]

Inquiry: What does the record list as pIC50 for CC(C)(O)C(=O)N1Cc2ccc(Nc3ncc(C(F)(F)F)c(N[C@H]4CC[C@@H](N)CC4)n3)cc2C1 ?
Reply text: 5.51

Inquiry: Next compound: N[C@H]1CC[C@@H](Nc2nc(Nc3ccc4c(c3)CCN(C(=O)CO)C4)ncc2C(F)(F)F)CC1
Reply text: 5.69

Inquiry: Same lookup for CC(C)(O)C(=O)N1CCc2ccc(Nc3ncc(C(F)(F)F)c(N[C@H]4CC[C@@H](N)CC4)n3)cc2C1 , please.
Reply text: 5.05

Inquiry: Now give it for N[C@H]1CC[C@@H](Nc2nc(Nc3ccc4c(c3)CN(C(=O)CO)C4)ncc2C(F)(F)F)CC1 too.
Reply text: 5.70

Inquiry: // next record CC(=O)N1CCc2cc(Nc3ncc(C(F)(F)F)c(N[C@H]4CC[C@@H](N)CC4)n3)ccc2C1
Reply text: 5.97

Inquiry: And CC(C)(O)CC(=O)N1Cc2ccc(Nc3ncc(C(F)(F)F)c(N[C@H]4CC[C@@H](N)CC4)n3)cc2C1 ?
Reply text: 5.61

Inquiry: Repeat for the following compound: CN1CCc2cc(Nc3ncc(C(F)(F)F)c(N[C@H]4CC[C@@H](N)CC4)n3)ccc2C1=O
Reply text: 5.32

Inquiry: Same for CC(C)(O)CC(=O)N1CCc2cc(Nc3ncc(C(F)(F)F)c(N[C@H]4CC[C@@H](N)CC4)n3)ccc21
Reply text: 5.30

Inquiry: Again, but for CC(=O)N1Cc2ccc(Nc3ncc(C(F)(F)F)c(N[C@H]4CC[C@@H](N)CC4)n3)cc2C1
Reply text: 5.65

Inquiry: Similarly, CC(C)(O)CC(=O)N1CCc2ccc(Nc3ncc(C(F)(F)F)c(N[C@H]4CC[C@@H](N)CC4)n3)cc2C1 ?
Reply text: 5.42

====

pIC50 by entry:
Target: Receptor-type tyrosine-protein kinase FLT3 (Homo sapiens, UniProt P36888, D835Y)
The read-out pIC50 is expressed as -log10 of concentration in moles per litre.

[
  {
    "molecular string": "CC(=O)N[C@H]1CC[C@@H](Nc2nc(Nc3ccc4c(c3)CCN(C(=O)CC(C)(C)O)C4)ncc2C(F)(F)F)CC1",
    "pIC50": 7.72
  },
  {
    "molecular string": "CC(C)(O)CC(=O)N1CCc2cc(Nc3ncc(C(F)(F)F)c(N[C@H]4CCCC[C@H]4N)n3)ccc2C1",
    "pIC50": 5.84
  },
  {
    "molecular string": "CC(C)(O)CC(=O)N1Cc2ccc(Nc3ncc(C(F)(F)F)c(N[C@H]4CC[C@@H](N)CC4)n3)cc2C1",
    "pIC50": 8.95
  }
]

Inquiry: # get_value(readout='pIC50', item= CC(=O)N1CCc2ccc(Nc3ncc(C(F)(F)F)c(N[C@H]4CC[C@@H](N)CC4)n3)cc2C1 )
Reply text: 8.91

Inquiry: Lookup CC(C)(O)CC(=O)N1CCc2cc(Nc3ncc(C(F)(F)F)c(NCCN)n3)ccc2C1
Reply text: 7.42

Inquiry: Next: CC(C)(O)CC(=O)N1CCc2cc(Nc3ncc(C(F)(F)F)c(N[C@H]4CCCNC4)n3)ccc2C1
Reply text: 6.51

Inquiry: Again, but for CNCCCNc1nc(Nc2ccc3c(c2)CCN(C(=O)CC(C)(C)O)C3)ncc1C(F)(F)F
Reply text: 7.56

Inquiry: Same question for CC(C)(O)CC(=O)N1CCc2cc(Nc3ncc(C(F)(F)F)c(NC4CCNCC4)n3)ccc2C1 please.
Reply text: 7.39

Inquiry: Queued: CC(C)(O)CC(=O)N1CCc2cc(Nc3ncc(C(F)(F)F)c(NCCCCCN)n3)ccc2C1
Reply text: 8.50

====

Target: Serine/threonine-protein kinase Chk1 (Homo sapiens, UniProt O14757)
Sequence (O14757 whole entry): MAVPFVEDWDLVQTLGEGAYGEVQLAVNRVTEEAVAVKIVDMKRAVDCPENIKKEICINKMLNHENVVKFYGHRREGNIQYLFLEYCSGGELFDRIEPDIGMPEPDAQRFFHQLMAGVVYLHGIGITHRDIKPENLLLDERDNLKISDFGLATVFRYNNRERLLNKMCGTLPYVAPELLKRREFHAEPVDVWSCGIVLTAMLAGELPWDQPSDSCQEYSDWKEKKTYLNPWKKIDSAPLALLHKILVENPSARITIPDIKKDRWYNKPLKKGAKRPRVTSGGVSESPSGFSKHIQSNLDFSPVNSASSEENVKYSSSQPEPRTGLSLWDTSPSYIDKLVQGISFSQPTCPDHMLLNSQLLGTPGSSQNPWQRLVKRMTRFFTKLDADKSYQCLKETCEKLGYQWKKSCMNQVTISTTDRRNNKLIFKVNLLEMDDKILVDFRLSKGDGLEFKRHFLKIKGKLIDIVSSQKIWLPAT
pIC50: −log10 of the molar value.
Outcome: true for pIC50 of at least 7; false for anything lower.

Solved cases (6 shown):
[
  {
    "molecular string": "CC(=O)N[C@H]1CC[C@@H](Nc2nc(Nc3ccc4c(c3)CCN(C(=O)CC(C)(C)O)C4)ncc2C(F)(F)F)CC1",
    "assigned label": "false"
  },
  {
    "molecular string": "CC(C)(O)CC(=O)N1CCc2cc(Nc3ncc(C(F)(F)F)c(N[C@H]4CC[C@@H](NS(C)(=O)=O)CC4)n3)ccc2C1",
    "assigned label": "false"
  },
  {
    "molecular string": "C[C@@H](O)C(=O)N1CCc2cc(Nc3ncc(C(F)(F)F)c(N[C@H]4CC[C@@H](N)CC4)n3)ccc2C1",
    "assigned label": "true"
  },
  {
    "molecular string": "CC(C)(O)C(=O)N1CCc2cc(Nc3ncc(C(F)(F)F)c(N[C@H]4CC[C@@H](N)CC4)n3)ccc2C1",
    "assigned label": "true"
  },
  {
    "molecular string": "CC(=O)N1CCc2cc(Nc3ncc(C(F)(F)F)c(N[C@H]4CC[C@@H](N)CC4)n3)ccc2C1",
    "assigned label": "true"
  },
  {
    "molecular string": "CC(=O)N1CCc2cc(Nc3ncc(C(F)(F)F)c(N[C@H]4CC[C@@H](N)CC4)n3)ccc21",
    "assigned label": "true"
  }
]

Please find the next molecule below.
Inquiry: Please tell me: is the molecule CC(C)(O)CC(=O)N1CCc2cc(Nc3ncc(C(F)(F)F)c(N[C@@H]4CCCC[C@@H]4N)n3)ccc2C1 at or over 7 in terms of pIC50?
Reply text: false
